Values compiled from patent US20220411492A1.

# system-tested: T1, human Claudin 18.2 (hCLDN18.2) (human, UniProt P56856-2 1-261)
# T1 construct: whole, on cells; also called CLDN18A2; claudin 18 splice variant 2
# test-summary: FACS, PDX-hCLDN18.2 gastric cancer tumor tissue-derived cells
quantity-kind: Mean maximum fluorescence intensity (Top MFI)
Give the value, in units of MFI, as a plain number.

- binder: "ch-253C4 (antibody, V domains shown, also called chimeric antibody of clone 253C4) VH: QVQLKQSGAELVRPGASVSLSCKTSGYIFTSYWIHWVKQRSGQGLEWIGRFYPGTGTAYYNENFEGKATLTADRSSSTAYMQLSSLKSDDSAVYFCTREGYGKGNAMDYWGQGTSVTVSS VL: DIVMTQSPSSLTVTTGEKVTLSCKSSQSLLNSGNQKNYLTWYQQKSGQPPELLIYWASTRESGVPDRFTGSGSGTDFTLTVSSVQAEDLAVYYCQNDYYFPFTFGGGTKLEIK"
  numeric-value: 15500

Shift focus to the following entry.
Fill in: Mean maximum fluorescence intensity (Top MFI) of ch-42D2 (antibody, V domains shown, also called chimeric antibody of clone 42D2) VH: EVQLQQSGPVLVKPGASVKMSCKASGYTFTDYQMNWVKQSHGKSLEWIGFINPYNGGIRYNQKFKGKATLTVDKSSSTAYMELNSLTSEDSAVYYCATIYFGNSFANWGQGTLVTVSA VL: DIVMTQSPSSLTVTAGEKVTMSCKPSQSLLNSGNQKNYLTWYQQKPGQPPRLLIYWASTRESGVPDRFTGSGSGTDFTLTISSVQAEDLAVYYCQNDYIYPYTFGGGTNLEIK is ___
15700
